# assaySystem: DR7 (DRB1*0701) (Homo sapiens, UniProt P01903+P01911, A100R/A102G/A103Q/D57E/D86V/E43K/F76Y/K127E/L162R/M171V/P40G/Q125H/Q99D/R33Q/R42Y/R54Q/S133A/S66F/T210M/V115G/Y107V/Y59L/Y89S)
# methodNotes: biochemical
# Assay type: binding
pIC50: −log10 of the molar value. No end group written: not given here.
The following sequences are shown together with reported pIC50 values.
assayReadout: pIC50

sequenceChain: ELQMALKGLAQSKYN [Peptide 90.0005]
result: < 4.70
--
sequenceChain: YFKYFKEDAKKYSKT [Peptide 90.0253]
result: < 4.70
--
sequenceChain: RLNLDNDEDKENNGD [Peptide 90.0144]
result: 6.06
--
sequenceChain: EYILDLHPEPTDLFC [Peptide 1543.51]
result: < 4.70
--
sequenceChain: SRVIVCPTSIPSDQI [Peptide 90.0027]
result: < 4.70
--
sequenceChain: ESDMAFQYAQLADCN [Peptide 89.0085]
result: 5.49
--
sequenceChain: TNKFSGYPLYHSVYE [Peptide 68.0116]
result: < 4.70
--
sequenceChain: WKAVRHENVLYYKAR [Peptide 90.0230]
result: 6.18
